Origin of the recorded values: patent US10954214B2

system: TMD8 cells; experiment: 4-day proliferation assay, TMD8; assay type: cell-based; conditions: Homo sapiens, 96 h, 4 days incubation, CellTiterGLO, read-out: Anti-proliferation: TMD-8 IC50
experimental.readout: IC50 (µM)
# value in µM; strip the unit string

1. Cn1ccc(-c2ncc(NC(=O)c3cnn(-c4cncc5ccccc45)c3C(F)(F)F)cc2C#N)n1 : 7.59

-- ask Which measured IC50 belongs to "O=C(Nc1ccc(-n2nccn2)c(Cl)c1)c1cnn(-c2cncc3ccccc23)c1C(F)(F)F" , tested on TMD8 cells?
-- reply 3.8

-- ask Which measured IC50 belongs to "O=C(Nc1cncc(C(F)(F)F)c1)c1cnn(-c2cccc3c(=O)[nH]ccc23)c1C(F)(F)F" , tested on TMD8 cells?
-- reply 4.57

-- ask Which measured IC50 belongs to "O=C(Nc1cnc(-c2ncco2)c(Cl)c1)c1cnn(-c2cccc3c(=O)[nH]ccc23)c1C(F)(F)F" , tested on TMD8 cells?
-- reply 11.2

###

molecular target: full-length MALT1 protein (Strep-MALT1(1-824)-His) (Homo sapiens (Human), UniProt Q9UDY8)
Sequence (Q9UDY8 whole entry): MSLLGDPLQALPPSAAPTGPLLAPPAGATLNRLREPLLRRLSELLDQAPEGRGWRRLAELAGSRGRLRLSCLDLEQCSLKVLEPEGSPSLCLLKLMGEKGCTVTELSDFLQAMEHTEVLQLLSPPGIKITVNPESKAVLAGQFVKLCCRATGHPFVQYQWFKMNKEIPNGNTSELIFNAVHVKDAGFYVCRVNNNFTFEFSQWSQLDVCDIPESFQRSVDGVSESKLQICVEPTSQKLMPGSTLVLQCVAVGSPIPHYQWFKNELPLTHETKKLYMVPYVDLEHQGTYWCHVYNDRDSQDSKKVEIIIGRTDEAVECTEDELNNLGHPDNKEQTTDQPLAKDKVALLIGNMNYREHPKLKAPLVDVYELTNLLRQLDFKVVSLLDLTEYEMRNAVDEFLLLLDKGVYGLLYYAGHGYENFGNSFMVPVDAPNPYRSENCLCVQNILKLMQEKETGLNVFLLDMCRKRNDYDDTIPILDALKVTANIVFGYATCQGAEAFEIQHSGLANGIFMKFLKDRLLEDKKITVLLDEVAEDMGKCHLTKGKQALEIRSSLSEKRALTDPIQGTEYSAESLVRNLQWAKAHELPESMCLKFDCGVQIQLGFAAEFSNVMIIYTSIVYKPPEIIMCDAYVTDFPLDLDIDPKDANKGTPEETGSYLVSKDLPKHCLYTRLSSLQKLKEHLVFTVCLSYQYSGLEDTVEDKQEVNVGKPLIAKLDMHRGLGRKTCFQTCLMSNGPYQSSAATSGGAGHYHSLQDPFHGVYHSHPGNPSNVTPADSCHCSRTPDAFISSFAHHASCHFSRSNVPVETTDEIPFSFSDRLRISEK
Reported pIC50 values follow for various compounds
Note: pIC50 values are expressed as the negative base-10 logarithm of concentration in M.

1. O=C(Nc1cnc(N2CCCC2=O)c(Cl)c1)c1cnn(-c2cncc3ccccc23)c1C(F)(F)F : 5.89
2. N#Cc1cc(NC(=O)c2cnn(-c3cccc4ncnn34)c2C(F)(F)F)cnc1-n1nccn1 : 6.85
3. Cc1cn2c(-n3ncc(C(=O)Nc4cnc(-n5nccn5)c(Cl)c4)c3C(F)(F)F)cccc2n1 : 6.96

# next compound below
-- ask GET /values?readout=pIC50&item= "N#Cc1cc(NC(=O)c2cnn(-c3cccc4ncccc34)c2C(F)(F)F)cnc1-n1cccc1"
-- reply 6.90

###

tested on: TMD8 cells; assay: 4-day proliferation assay, TMD8; type: cell-based; details: Homo sapiens, 96 h, 4 days incubation, CellTiterGLO, read-out: Anti-proliferation: TMD-8 IC50
Mark true (1) for IC50 under 4 µM, false (0) if at or over.

Example entries and their recorded answers appear below.
1) O=C(Nc1cnc(-n2nccn2)c(Cl)c1)c1cnn(-c2cccc3ncsc23)c1C(F)(F)F : true (1)
2) N#Cc1cc(NC(=O)c2cnn(-c3ccc(F)c4nccn34)c2C(F)(F)F)cnc1-n1nccn1 : false (0)
3) N#Cc1cc(NC(=O)c2cnn(-c3ccc(N)c4ncccc34)c2C(F)(F)F)cnc1-n1nccn1 : true (1)

-- ask Threshold test, IC50 < 4 µM: "NC(=O)c1ncc(-n2ncc(C(=O)Nc3cnc(-n4nccn4)c(Cl)c3)c2C(F)(F)F)c2ccccc12"
-- reply true (1)

-- ask Threshold test, IC50 < 4 µM: "Cn1ccc(-c2ncc(NC(=O)c3cnn(-c4cccc5c(=O)[nH]ccc45)c3C(F)(F)F)cc2Cl)n1"
-- reply false (0)

-- ask Threshold test, IC50 < 4 µM: "O=C(Nc1cnc(-n2nccn2)c(Cl)c1)c1cnn(-c2cnc(CO)c3ccccc23)c1C(F)(F)F"
-- reply true (1)

-- ask Threshold test, IC50 < 4 µM: "Cn1nnc(-c2ncc(NC(=O)c3cnn(-c4cccc5ncccc45)c3C(F)(F)F)cc2C#N)n1"
-- reply false (0)

-- ask Threshold test, IC50 < 4 µM: "NCCCCNC(=O)c1ncc(NC(=O)c2cnn(-c3cncc4ccccc34)c2C(F)(F)F)cc1Cl"
-- reply false (0)
